target-desc: Calcium release-activated calcium channel protein 1 (Homo sapiens, UniProt Q96D31)
measurement-description: Inhibition of Orai1-mediated store operated Ca2+ entry in human MDA-MB-231 cells assessed as reduction of SERCA inhibition-induced ER release preincubated for 15 mins followed by CPA addition by PBX-based FLIPR assay
Type: cell-based
Sequence (Q96D31 whole entry): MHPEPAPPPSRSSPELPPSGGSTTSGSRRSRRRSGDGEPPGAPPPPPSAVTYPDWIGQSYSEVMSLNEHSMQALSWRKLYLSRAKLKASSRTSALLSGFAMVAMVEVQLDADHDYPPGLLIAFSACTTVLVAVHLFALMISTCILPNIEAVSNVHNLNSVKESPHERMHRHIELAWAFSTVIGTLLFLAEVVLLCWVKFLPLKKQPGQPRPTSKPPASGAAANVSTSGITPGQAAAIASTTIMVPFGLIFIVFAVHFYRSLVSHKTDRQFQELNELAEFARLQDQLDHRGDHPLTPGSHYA
Form field: pIC50 (one value per entry).
The meaning of pIC50 here: minus log10 of the concentration in molar units.

# annotated cases, reported pIC50 shown
compound: Clc1ccc(COC(Cn2ccnc2)c2ccc(Cl)cc2Cl)cc1 (stereo not given)
observed-value: 4.03
--
compound: COCC(=O)O[C@]1(CCN(C)CCCc2nc3ccccc3[nH]2)CCc2cc(F)ccc2[C@@H]1C(C)C
observed-value: 4.28
--
compound: Clc1ccc(COC(Cn2ccnc2)c2ccc(Cl)cc2Cl)c(Cl)c1 (stereo not given)
observed-value: 4.00
--
compound: O=Cc1cc(Cl)cc(Cl)c1OCCOc1cccnc1
observed-value: 4.00

// below: pIC50 requested for another compound
Form field: pIC50 recorded for COc1ccc(CCCCOC(Cn2ccnc2)c2ccc(OC)cc2)cc1 (stereo not given) with Calcium release-activated calcium channel protein 1 (Homo sapiens, UniProt Q96D31) (enter value)
4.38

====

Form field: inhibition (one value per entry).
target-desc: Calcium release-activated calcium channel protein 1 (Homo sapiens, UniProt Q96D31)
measurement-description: Inhibition of Orai1-mediated store operated Ca2+ entry in human MDA-MB-231 cells assessed as reduction in BAPTA-induced Ca2+ depletion-stimulated SOCE activity at 100 uM preincubated for 15 mins followed by BAPTA addition in presence of extracellular Ca2+ by PBX-based FLIPR assay relative to control
Format: cell-based
Sequence (Q96D31 whole entry, looked up): as the sequence (Q96D31 whole entry) above

# annotated cases, reported inhibition shown
compound: Cc1ccc(OCCOc2c(Cl)cc(Cl)cc2/C=N/n2cnnc2)cc1
inhibition: 22%
//
compound: Cc1ccn(-c2ccc(NC(=O)c3cccnc3)cc2)n1
inhibition: < 10%

// below: inhibition requested for another compound
Requested field: inhibition. Item: CCC(C)n1ncn(-c2ccc(N3CCN(c4ccc(OCC5COC(Cn6cncn6)(c6ccc(Cl)cc6Cl)O5)cc4)CC3)cc2)c1=O (stereo unspecified)
< 10%

====

Form field: log10 IC50 (one value per entry).
target-desc: Calcium release-activated calcium channel protein 1 (Homo sapiens)
measurement-description: Inhibition of Orai1-mediated store operated Ca2+ entry in human MDA-MB-231 cells assessed as reduction in BAPTA-induced Ca2+ depletion-stimulated SOCE activity preincubated for 15 mins followed by BAPTA addition in presence of extracellular Ca2+ by PBX-based FLIPR assay
Assay type: cell-based
Reminder: these figures are log10 of reported IC50, in µM before transformation.

molecule: CCC(C)c1ccc(OCCOc2c(Cl)cc(Cl)cc2/C=N/n2cnnc2)cc1 (stereo not given)
observed-value: 1.99

molecule: Clc1ccc(COC(Cn2ccnc2)c2ccc(Cl)cc2Cl)c(Cl)c1 (stereo not given)
observed-value: 1.43

molecule: O=C(Nc1ccc(-n2nc(C(F)(F)F)cc2C(F)(F)F)cc1)c1ccc(Cl)cc1
observed-value: 1.76

molecule: COc1ccc(OC)c(-c2ccc(N(C)C(=O)c3ccncc3F)cc2)c1
observed-value: 0.11

molecule: COc1ccc(CCCCOC(Cn2ccnc2)c2ccc(OC)cc2)cc1 (stereo not given)
observed-value: 1.83

molecule: Clc1ccc(COC(Cn2ccnc2)c2ccc(Cl)cc2Cl)cc1 (stereo not given)
observed-value: 1.23

Requested field: log10 IC50. Item: O=Cc1cc(Cl)cc(Cl)c1OCCOc1cccnc1
2.00

Try this molecule next: COc1ccc(OCC(=O)N2CCN(C3CCC(c4ccccc4)CC3)CC2)cc1 (stereo not given)
1.88

Try this molecule next: CN(C)c1cccc(C(=O)Nc2ccc(-n3cnc4ccccc43)nc2)c1
1.68

Reference for the values: ChEMBL document CHEMBL3868625
